Entry source: ChEMBL document CHEMBL3988442

Please go through the items and note down their Percent Effect.
- Tested on: Wolbachia pipientis
- protocol: Anti-Wolbachia Cell-Based Screen
- Format: functional
- Parameters: scale not given: in the data most compounds retested in dose-response had high values
- details: 5 µM
Screen size: about 48,000 compounds; about 13,000 (27%) showed an effect of 50% or more. This is one part of the list.
Numbers only, in %.

Cc1cnn(CC2CCCN2Cc2ncc(-c3ccccc3)o2)c1 (configuration not stated) = -2.575
CCN(CC)C(=O)CCn1ncc2c(Cl)cccc21 = 18.4
Cc1cnn(CC2CCCN2Cc2nnc(C3CC3)o2)c1 (configuration not stated) = 113.6

Give me Percent Effect for each of these molecules, listed below.
1. NC(=O)c1csc(C(=O)N2CCCCC2Cn2cccn2)c1 (configuration not stated)
2. CCn1ncc(Br)c1CN(C)S(=O)(=O)c1ccc(C)cc1
3. NC(=O)c1noc(Cn2ncc3ccccc3c2=O)n1
4. CCN(C(=O)c1c(Cl)cnn1CC)C(C)C(N)=O (configuration not stated)

(A)
1. -5.921
2. 6.609
3. -15.29
4. -13.9

Give me Percent Effect for each of these molecules, listed below.
1. Cc1cnn(CC2CCCCN2Cc2noc(C3CC3)n2)c1 (configuration not stated)
2. COCc1noc(C2(c3ccc(F)cc3)CCC2)n1
3. CSc1ncccc1C(=O)NC(C)c1cccc(N2CCOC2=O)c1 (configuration not stated)
4. Cc1cnn(CC2CCCN2Cc2nnc(C(C)C)o2)c1 (configuration not stated)
5. Cc1cnn(CC2CCCN2Cc2nnc(Cc3ccccc3)o2)c1 (configuration not stated)

(A)
[11.5, -10.25, 5.443, 94.36, 6.561]

----------
Please go through the items and note down their Percent Effect.
- Test system: Wolbachia pipientis
- protocol: Anti-Wolbachia Cell-Based Screen
- Assay type: functional
- Set-up: scale not given: in the data most compounds retested in dose-response had high values
- details: 5 µM
The whole screen tested about 48,000 compounds, of which about 13,000 (27%) showed an effect of 50% or more. Some of the results follow.
Report as: number unit

Some compounds with known Percent Effect results, for comparison:
CCCNCC1(O)CCCN(Cc2cccc(C)c2)C1=O (configuration not stated) = 20.78%
OC1CCCN(Cc2cn(CC3CCN(C4CCSCC4)CC3)nn2)C1 (configuration not stated) = -15.38%
COc1ccc2c(c1)nc1n2[C@@H](CNCc2nccs2)COC1 = 4.423%
CC(C)CCN1CCN(Cc2nc(C(C)C)no2)CC1 = -7.959%
CC(C)(C)c1noc(CN2CCCN(Cc3cccs3)CC2)n1 = 1.032%

Give me Percent Effect for each of these compounds, listed below.
1. COCc1ccccc1C(=O)NCC(O)c1ccc(Cl)s1 (configuration not stated)
2. CC(C)c1noc(CN2CCCN(Cc3cccs3)CC2)n1
3. Cc1cnn(CC2CCCCN2CC(=O)N(C)Cc2ccc(C)o2)c1 (configuration not stated)
4. CCc1noc(CN2CCCN(C(N)=O)CC2)n1
5. COc1ccc(/C=C/CN2CCN(c3ncccc3C(N)=O)CC2)cc1
6. CC(C)Cc1noc(CN2CCN(C(=O)c3cccs3)CC2)n1

(A)
11.9%
67.59%
-2.749%
-3.109%
-5.557%
-25.07%

(Q) Entry CC(C)(C)c1nc(CN2CCCN(Cc3cccs3)CC2)no1 : reported Percent Effect = ?
(A) 85.49%
